Target system: THR beta-LBD (Homo sapiens, UniProt P10828)
Construct: THR beta-LBD (the final concentration is 0.5 nM) was added to the 384-well assay plate; purchased Invitrogen PV4686
Sequence (P10828 217-461 limits assumed): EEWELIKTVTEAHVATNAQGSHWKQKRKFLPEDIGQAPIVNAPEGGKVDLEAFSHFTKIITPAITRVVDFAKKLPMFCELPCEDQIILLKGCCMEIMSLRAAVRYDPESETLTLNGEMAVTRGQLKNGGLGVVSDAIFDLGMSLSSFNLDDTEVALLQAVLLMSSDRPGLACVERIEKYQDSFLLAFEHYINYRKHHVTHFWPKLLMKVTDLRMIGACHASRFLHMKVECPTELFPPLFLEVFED
Method summary: THR-β Coactivator Peptide Recruitment Assay (LanthaScreen TR-FRET)
Type: biochemical
Recorded conditions: TR-FRET coactivator recruitment, THR beta-LBD 0.5 nM; read-out: THRβ EC50
I'd be grateful if you could share measured EC50 for these entries.

### Prompt Look at this compound and give its reported EC50. `N#CC1(NS(=O)(=O)c2cc(Oc3c(Cl)cc(-n4nc(C(F)F)c(=O)[nH]c4=O)cc3Cl)ccc2O)CC1`
### Response < 2 nM

### Prompt And then `O=c1[nH]c(=O)n(-c2cc(Cl)c(Oc3ccc(O)c(S(=O)(=O)N[C@H]4C[C@H](O)C4)c3)c(Cl)c2)nc1C(F)F` , what is it?
### Response < 2 nM

### Prompt And then `CS(=O)(=O)c1cc(Oc2c(Cl)cc(-n3nc(C(F)F)c(=O)[nH]c3=O)cc2Cl)ccc1O` , what is it?
### Response < 2 nM

### Prompt And then `CS(=O)(=O)N1CC[C@@H](NS(=O)(=O)c2cc(Oc3c(Cl)cc(-n4nc(C(F)F)c(=O)[nH]c4=O)cc3Cl)ccc2O)C1` , what is it?
### Response 2 to 20 nM

### Prompt And then CN1C[C@@H](NS(=O)(=O)c2cc(Oc3c(Cl)cc(-n4nc(C(F)F)c(=O)[nH]c4=O)cc3Cl)ccc2O)CC1=O (single isomer, unassigned) , what is it?
### Response 20 to 100 nM

### Prompt And then `O=c1[nH]c(=O)n(-c2cc(Cl)c(Oc3ccc(O)c(S(=O)(=O)N[C@H]4CCOC4)c3)c(Cl)c2)nc1C(F)F` , what is it?
### Response < 2 nM

### Prompt And then `CCNS(=O)(=O)c1cc(Oc2c(Cl)cc(-n3nc(C(F)F)c(=O)[nH]c3=O)cc2Cl)ncc1O` , what is it?
### Response < 2 nM

### Prompt And then `O=c1[nH]c(=O)n(-c2cc(Cl)c(Oc3ccc(O)c(S(=O)(=O)N[C@H]4CCN(S(=O)(=O)C5CC5)C4)c3)c(Cl)c2)nc1C(F)F` , what is it?
### Response 2 to 20 nM

### Prompt And then `O=C(CNS(=O)(=O)c1cc(Oc2c(Cl)cc(-n3nc(C(F)F)c(=O)[nH]c3=O)cc2Cl)ccc1O)NC1CCC1` , what is it?
### Response 2 to 20 nM

### Prompt And then `Cc1nn(-c2cc(Cl)c(Oc3cc(S(=O)(=O)N[C@H]4C[C@@H](O)C4)c(O)cn3)c(Cl)c2)c(=O)[nH]c1=O` , what is it?
### Response > 100 nM

### Prompt And then `O=C(NC1CCC1)C1(NS(=O)(=O)c2cc(Oc3c(Cl)cc(-n4nc(C(F)F)c(=O)[nH]c4=O)cc3Cl)ncc2O)CC1` , what is it?
### Response 2 to 20 nM

### Prompt And then `CN1CC(NS(=O)(=O)c2cc(Oc3c(Cl)cc(-n4nc(C(F)F)c(=O)[nH]c4=O)cc3Cl)ncc2O)C1` , what is it?
### Response > 100 nM

### Prompt And then `O=c1[nH]c(=O)n(-c2cc(Cl)c(Oc3cc(S(=O)(=O)N[C@H]4C[C@@H](O)C4)c(O)cn3)c(Cl)c2)nc1C(F)F` , what is it?
### Response 2 to 20 nM

### Prompt And then `CO[C@H]1C[C@H](NS(=O)(=O)c2cc(Oc3c(Cl)cc(-n4nc(C(F)F)c(=O)[nH]c4=O)cc3Cl)ccc2O)C1` , what is it?
### Response 2 to 20 nM

### Prompt And then `O=c1[nH]c(=O)n(-c2cc(Cl)c(Oc3ccc(O)c([S@TB3](=O)(=O)N4CCOCC4)c3)c(Cl)c2)nc1C(F)F` , what is it?
### Response < 2 nM

### Prompt And then `O=c1[nH]c(=O)n(-c2cc(Cl)c(Oc3ccc(O)c(S(=O)(=O)NC45CC(O)(C4)C5)c3)c(Cl)c2)nc1C(F)F` , what is it?
### Response 2 to 20 nM

### Prompt And then `O=C(CNS(=O)(=O)c1cc(Oc2c(Cl)cc(-n3nc(C(F)F)c(=O)[nH]c3=O)cc2Cl)ncc1O)NC1CCC1` , what is it?
### Response > 100 nM

### Prompt And then `CS(=O)(=O)c1cc(Oc2c(Cl)cc(-n3nc(C#N)c(=O)[nH]c3=O)cc2Cl)ncc1O` , what is it?
### Response 20 to 100 nM

### Prompt And then `CNC(=O)N1CC(NS(=O)(=O)c2cc(Oc3c(Cl)cc(-n4nc(C(F)F)c(=O)[nH]c4=O)cc3Cl)ccc2O)C1` , what is it?
### Response 20 to 100 nM

### Prompt And then `O=c1[nH]c(=O)n(-c2cc(Cl)c(Oc3ccc(O)c(S(=O)(=O)NC4CCC4)c3)c(Cl)c2)nc1C(F)F` , what is it?
### Response < 2 nM

### Prompt And then O=c1[nH]c(=O)n(-c2cc(Cl)c(Oc3ccc(O)c(S(=O)(=O)N[C@@H]4CC[C@@H](O)C4)c3)c(Cl)c2)nc1C(F)F (racemic) , what is it?
### Response 2 to 20 nM

### Prompt And then `O=c1[nH]c(=O)n(-c2cc(Cl)c(Oc3ccc(O)c(S(=O)(=O)NC[C@H]4C[C@@H](O)C4)c3)c(Cl)c2)nc1C(F)F` , what is it?
### Response 2 to 20 nM

### Prompt And then `O=C(N[C@H]1C[C@@H](NS(=O)(=O)c2cc(Oc3c(Cl)cc(-n4nc(C(F)F)c(=O)[nH]c4=O)cc3Cl)ccc2O)C1)C1CC1` , what is it?
### Response 2 to 20 nM

### Prompt And then `O=c1[nH]c(=O)n(-c2cc(Cl)c(Oc3cc(S(=O)(=O)N[C@H]4C[C@H](O)C4)c(O)cn3)c(Cl)c2)nc1C(F)F` , what is it?
### Response 2 to 20 nM

### Prompt And then `O=C(NC1CC1)C1(NS(=O)(=O)c2cc(Oc3c(Cl)cc(-n4nc(C(F)(F)F)c(=O)[nH]c4=O)cc3Cl)ccc2O)CC1` , what is it?
### Response 20 to 100 nM
